Entries annotated with measured growth
# Tested on: IGROV1 ovarian
# Test summary: NCI-60 one-dose screen, 48 h (100 = growth as untreated, 0 = no growth, -100 = all killed)
# Details: 10 µM
This is part of a sample that, as a whole, favours compounds with a hit. Of some 83,000 tested, about 20% had one in any assay.
Expressed in %, but write only the number.

Sample answers from the record:
{"columns": ["Compound", "Unit text", "Endpoint result"],
 "data": [
  ["COc1ccc(OC)c2c1C(=O)CC2C (stereo unspecified)", "%", 100],
  ["CC1(C)OC2=C(CC1Br)C(=O)C(=O)c1ccccc12 (stereo unspecified)", "%", -80.2],
  ["C/C(N)=C(\\C#N)C(=O)c1ccccc1", "%", 101],
  ["CCN(CC)CCC(CNc1c(C)cnc2cc(Cl)ccc12)c1ccc(Cl)c(Cl)c1 (stereo unspecified)", "%", 33.2],
  ["O=C1/C(=C\\c2ccc(Br)cc2)CN(C(=O)c2ccccc2F)C/C1=C\\c1ccc(Br)cc1", "%", -31.4],
  ["Cc1nc2ccc(CN(C)c3ccc(C(=O)N[C@@H](CCC(=O)O)C(=O)O)s3)cc2c(=O)[nH]1", "%", 71.8],
  ["Cc1ccc(NC(=O)Nc2c(Cl)cccc2Cl)cn1", "%", 85.9],
  ["C[C@@H]1C=C2C(=O)O[C@@H]3CC[C@H](C1)[C@]23O", "%", 42.2],
  ["COc1cc(/C=C\\c2cc(OC)c(OC)c(OC)c2)cc(NS(=O)(=O)c2ccc(Cl)cc2)c1OC", "%", 46.8],
  ["Cc1ccc(C(=O)Nc2cccc(F)c2)cc1NC(=O)C1(c2ncnc3[nH]ccc23)CC1", "%", 90.3]
]}

growth reading for COc1cc(C(=O)/C=C/c2cc(-c3cc(OC)c(OC)c(OC)c3)n[nH]2)cc(OC)c1OC : -20

growth reading for CCN(CC)CCC(CNc1c(C)cnc2cc(Cl)ccc12)c1ccc(Cl)cc1 (stereo unspecified) : 46.4

growth reading for c1ccc(C(NC2CC3CCC2C3)c2ccccc2)cc1 (stereo unspecified) : 109

growth reading for COc1ccc(C2=Nc3c(C)nn(-c4ccccc4)c3NC(c3ccc(Oc4ccnc5cc(Cl)ccc45)c(OC)c3)C2)cc1 (stereo unspecified) : 73.4

growth reading for CS(=O)(=O)Nc1cccc(-c2cc(-c3ccccc3Cl)c(C#N)c(N)n2)c1 : 51.4

growth reading for Cc1ccc2oc3nc(C)c(C(=O)NCc4ccccc4)cc3c(=O)c2c1 : 103

growth reading for O=C(O)c1ccc(P(=O)(O)O)c([N+](=O)[O-])c1 : 119

growth reading for O=S(=O)(NCCCNc1nccc(-c2c(-c3ccc(F)cc3)nc3sccn23)n1)c1ccc(F)cc1 : 18.6

growth reading for CN1c2ccccc2[C@]2(Cc3ccccc3)Cc3ccccc3N[C@H]12 : 88.8

growth reading for CN1CCC2(CC1)NC(=O)c1c(c3ccc(Cl)c(Cl)c3n1C)C2C#N (stereo unspecified) : 73.4

growth reading for COc1cc2c(cc1OCCCN1CCN(c3ncnc4ccccc34)CC1)N=CC1CCCN1C2=O (stereo unspecified) : -28.9
